Biological target: Genome polyprotein (Coxsackievirus B3 (strain Nancy))
Sequence (P03313 1541-1723 limits assumed): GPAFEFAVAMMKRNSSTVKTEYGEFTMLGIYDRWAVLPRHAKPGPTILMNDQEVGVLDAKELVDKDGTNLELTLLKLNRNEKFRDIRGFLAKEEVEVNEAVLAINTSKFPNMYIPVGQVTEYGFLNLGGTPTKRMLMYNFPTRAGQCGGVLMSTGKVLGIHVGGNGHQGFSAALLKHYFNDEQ
Assay: Inhibition of recombinant Coxsackievirus B3 3C protease expressed in Escherichia coli BL21 (DE3) preincubated for 5 mins followed by addition of NMA-EALFQGPPVK-DNP-rrr-NH2 as substrate measured up to 2 hrs by FRET-based enzyme assay
I'd appreciate it if you could supply IC50 values for the items below.

Genome polyprotein (Coxsackievirus B3 (strain Nancy)) IC50 of CS(=O)(=O)c1cccc(/C=N/NC(=O)c2ccccc2)c1 is > 50 µM

// returns IC50 for O=C(N/N=C/c1ccc(O)c(O)c1)c1ccccc1 with Genome polyprotein (Coxsackievirus B3 (strain Nancy)); value = > 50 µM

Response field IC50 (Genome polyprotein (Coxsackievirus B3 (strain Nancy))) for item O=C(N/N=C/c1cccc(O)c1O)c1ccccc1 : > 50 µM
